Origin of values: patent US20240239878A1

Biological target: T1, human DLL3 on SHP-77 cells (human, UniProt Q9NYJ7 27-618)
T1 construct: also called DLL3-expressing cells (SHP-77)
T1 sequence: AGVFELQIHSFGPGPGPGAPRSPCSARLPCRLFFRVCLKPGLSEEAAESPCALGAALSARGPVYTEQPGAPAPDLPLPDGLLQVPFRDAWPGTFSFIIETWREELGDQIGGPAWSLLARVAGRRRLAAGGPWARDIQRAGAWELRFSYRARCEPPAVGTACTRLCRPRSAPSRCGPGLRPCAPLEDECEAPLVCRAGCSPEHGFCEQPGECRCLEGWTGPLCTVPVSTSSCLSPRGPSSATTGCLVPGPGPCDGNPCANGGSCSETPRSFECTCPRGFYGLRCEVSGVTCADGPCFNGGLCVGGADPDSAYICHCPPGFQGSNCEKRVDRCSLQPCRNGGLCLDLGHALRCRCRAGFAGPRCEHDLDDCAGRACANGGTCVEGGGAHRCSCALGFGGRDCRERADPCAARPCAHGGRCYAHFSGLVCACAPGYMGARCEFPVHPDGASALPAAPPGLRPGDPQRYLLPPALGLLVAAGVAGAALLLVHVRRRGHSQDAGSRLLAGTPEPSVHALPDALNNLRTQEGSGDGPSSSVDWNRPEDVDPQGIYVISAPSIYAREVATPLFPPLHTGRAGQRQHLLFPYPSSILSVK
Assay: flow cytometry, SHP-77 cells
A collection of binders and their measured EC50
readout.type: EC50 (pM)

>  <binder>
DLL3-26 camelid-derived anti-DLL3 chimeric antibody (antibody, human IgG1, V domains shown) VH: QVQLVESGGGSVQAGGSLRLSCAASGDIYSSSYVGWFRQAPGKEREGVAIIYTSGDSTYYANSVKGRFTISQDKAKKTLYLQMNSLKPEDTAMYYCAARFAIDNSNYWGQGTQVTVSS

>  <readout.type>
EC50

>  <unit.info>
pM

>  <data.value>
519

$$$$
>  <binder>
DLL3-12 camelid-derived anti-DLL3 chimeric antibody (antibody, human IgG1, V domains shown) VH: QVQLVESGGGLVQPGESLRLSCAGSGFAFSSYDMHWVRQAPGKDFEWVSSISRDGRGPRYADFVKGRFTISKDNGRNMLYLQLNSLEIEDTAMYYCSKGYPIMGGTTQGTQVTVSS

>  <readout.type>
EC50

>  <unit.info>
pM

>  <data.value>
92

$$$$
